Where do these numbers come from? They come from ChEMBL document CHEMBL1131894.

biological target: Sodium-dependent serotonin transporter (Rattus norvegicus); experiment: Inhibition of [3H]5-HT uptake at striatal nerve endings by serotonin transporter
Sequence (P31652 whole entry): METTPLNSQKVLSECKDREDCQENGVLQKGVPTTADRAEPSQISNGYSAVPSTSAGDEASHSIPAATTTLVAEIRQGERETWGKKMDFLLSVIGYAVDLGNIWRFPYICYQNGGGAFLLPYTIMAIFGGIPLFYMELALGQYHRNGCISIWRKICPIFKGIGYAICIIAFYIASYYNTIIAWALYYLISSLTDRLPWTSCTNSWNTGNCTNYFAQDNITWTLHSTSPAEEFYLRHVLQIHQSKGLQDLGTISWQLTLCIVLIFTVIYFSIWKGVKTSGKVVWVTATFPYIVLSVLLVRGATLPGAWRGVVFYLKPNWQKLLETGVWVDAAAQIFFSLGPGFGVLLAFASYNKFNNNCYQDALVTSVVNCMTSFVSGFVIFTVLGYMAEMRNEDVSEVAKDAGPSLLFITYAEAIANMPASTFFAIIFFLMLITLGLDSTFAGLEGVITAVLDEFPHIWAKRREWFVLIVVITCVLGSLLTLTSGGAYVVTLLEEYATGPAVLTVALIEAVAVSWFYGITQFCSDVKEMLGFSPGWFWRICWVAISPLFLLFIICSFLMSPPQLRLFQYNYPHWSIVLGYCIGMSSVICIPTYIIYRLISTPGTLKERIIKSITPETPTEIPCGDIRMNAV
pKi: −log10 of the molar value.
Assay Readout: pKi

>>> reading("Cc1ccc([C@@H]2C[C@H]3CCC(C2c2ccccc2)N3C)cc1 (stereo not given in full)")
6.92
>>> reading("Fc1ccc(C2C3CC[C@H](C[C@H]2c2ccc(F)cc2)N3CCCc2ccccc2)cc1 (stereo not given in full)")
6.22
>>> reading("Fc1ccc(C2C3CCC(C[C@H]2c2ccc(F)cc2)N3)cc1 (stereo not given in full)")
7.39
>>> reading("Fc1ccc(C2C3CC[C@H](C[C@H]2c2ccc(F)cc2)N3CCCCc2ccccc2)cc1 (stereo not given in full)")
6.96
>>> reading("Fc1ccc(OCCN2C3CC[C@@H]2C[C@@H](c2ccc(F)cc2)C3c2ccc(F)cc2)cc1 (stereo not given in full)")
6.03
>>> reading("CN1C2CC[C@@H]1C[C@@H](c1ccc(F)cc1)C2c1ccc(F)cc1 (stereo not given in full)")
6.34
>>> reading("Fc1ccc(C2C3CC[C@H](C[C@H]2c2ccc(F)cc2)N3Cc2ccccc2)cc1 (stereo not given in full)")
6.31
>>> reading("Cc1ccc([C@@H]2C[C@H]3CCC(C2c2ccccc2)N3CCc2ccccc2)cc1 (stereo not given in full)")
6.74

---

test: Selectivity of uptake of 5-HT to DA; assay type: functional
Assay Readout: Selectivity

>>> reading("Fc1ccc(OCCN2C3CC[C@@H]2C[C@@H](c2ccc(F)cc2)C3c2ccc(F)cc2)cc1 (some centres undefined)")
34
>>> reading("CN1C2CC[C@@H]1C[C@@H](c1ccc(F)cc1)C2c1ccc(F)cc1 (some centres undefined)")
33
>>> reading("Fc1ccc(C2C3CCC(C[C@H]2c2ccc(F)cc2)N3)cc1 (some centres undefined)")
2.4
>>> reading("Cc1ccc([C@@H]2C[C@H]3CCC(C2c2ccccc2)N3C)cc1 (some centres undefined)")
26

---

target: Sodium-dependent dopamine transporter (Rattus norvegicus, UniProt P23977); assay: Displacement of [3H]mazindol from cocaine binding site on Dopamine transporter (DAT)
Sequence (P23977 whole entry): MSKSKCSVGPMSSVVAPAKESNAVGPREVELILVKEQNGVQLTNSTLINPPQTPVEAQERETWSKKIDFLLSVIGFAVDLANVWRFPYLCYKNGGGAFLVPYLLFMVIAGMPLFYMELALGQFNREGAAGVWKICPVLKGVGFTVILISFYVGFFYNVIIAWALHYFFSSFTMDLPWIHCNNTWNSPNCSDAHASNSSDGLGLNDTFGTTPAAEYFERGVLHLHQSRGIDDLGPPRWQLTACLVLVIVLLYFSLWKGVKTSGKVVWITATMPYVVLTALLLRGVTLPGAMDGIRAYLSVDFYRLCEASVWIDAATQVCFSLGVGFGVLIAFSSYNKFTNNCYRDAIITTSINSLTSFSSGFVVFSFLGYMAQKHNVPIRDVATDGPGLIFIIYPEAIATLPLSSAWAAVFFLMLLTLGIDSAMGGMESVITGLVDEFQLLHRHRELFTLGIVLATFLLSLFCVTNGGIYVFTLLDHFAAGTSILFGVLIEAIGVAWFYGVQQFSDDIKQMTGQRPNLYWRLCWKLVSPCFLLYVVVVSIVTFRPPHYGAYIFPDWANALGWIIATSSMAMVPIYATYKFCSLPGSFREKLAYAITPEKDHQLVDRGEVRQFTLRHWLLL
Binary call on Ki with cut-off 30 nM: strictly below means condition met, and equality or higher means condition not met.

>>> cat("Fc1ccc(C2C3CC[C@H](C[C@H]2c2ccc(F)cc2)N3CCc2ccccc2)cc1 (stereo not given in full)")
"condition met"
>>> cat("Fc1ccc(C2C3CC[C@H](C[C@H]2c2ccc(F)cc2)N3Cc2ccccc2)cc1 (stereo not given in full)")
"condition not met"
>>> cat("Fc1ccc(C2C3CC[C@H](C[C@H]2c2ccc(F)cc2)N3CCCc2ccccc2)cc1 (stereo not given in full)")
"condition met"
>>> cat("Fc1ccc(C2C3CC[C@H](C[C@H]2c2ccc(F)cc2)N3CCCCc2ccccc2)cc1 (stereo not given in full)")
"condition not met"
>>> cat("CN1C2CC[C@@H]1C[C@@H](c1ccc(F)cc1)C2c1ccc(F)cc1 (stereo not given in full)")
"condition not met"
>>> cat("Cc1ccc([C@@H]2C[C@H]3CCC(C2c2ccccc2)N3C)cc1 (stereo not given in full)")
"condition met"
>>> cat("Fc1ccc(C2C3CCC(C[C@H]2c2ccc(F)cc2)N3)cc1 (stereo not given in full)")
"condition not met"
>>> cat("Fc1ccc(C2C3CC[C@H](C[C@H]2c2ccc(F)cc2)N3CCC(c2ccccc2)c2ccccc2)cc1 (stereo not given in full)")
"condition not met"
>>> cat("Cc1ccc([C@@H]2C[C@H]3CCC(C2c2ccccc2)N3CCc2ccccc2)cc1 (stereo not given in full)")
"condition met"
>>> cat("Fc1ccc(OCCN2C3CC[C@@H]2C[C@@H](c2ccc(F)cc2)C3c2ccc(F)cc2)cc1 (stereo not given in full)")
"condition met"
